Provide the recorded Blending Synergy for the entries that follow.
- Test system: NCI-H1650 cell line
- assay.text: Cellular anti-proliferative assay of VPS34 inhibitors in combination with a second therapeutic agent (Cell Titer Glo, 72 hrs)
- Assay type: cell-based, human
- assay.setup: NCI H-1650; in combination with Erlotinib (Compound Y)
Answers are plain numbers.

Below, 3 compounds whose answers are already recorded.
• CC(=O)Nc1cc(-c2cnc(C)c(NS(=O)(=O)c3ccc(Cl)cc3F)c2)ccn1 = 23.69
• CC(=O)Nc1cc(-c2cnc(C)c(NS(=O)(=O)N(C)C)c2)ccn1 = 22.29
• Cc1ncc(-c2ccnc(Nc3ccncn3)c2)cc1NS(=O)(=O)N(C)C = 28.65

Field: Blending Synergy. Fill in for each record below.
1. Cc1c(-c2ccnc(NC(=O)C3CC3)c2)cnc(Cl)c1NS(=O)(=O)c1ccc(F)cc1F
2. CC(=O)Nc1cc(-c2cnc(Cl)c(NS(=O)(=O)c3ccc(F)cc3F)c2C)ccn1
3. Cc1nccc(Nc2cc(-c3cnc(Cl)c(NS(=O)(=O)c4ccc(F)cc4F)c3C)ccn2)n1
4. CC(=O)Nc1cc(-c2cnc(C)c(NS(=O)(=O)c3ccc(F)cc3F)c2)ccn1

Ans.
[27.0, 23.76, 26.93, 20.5]

Data provenance is patent US9751854B2.
